System: SF-539 CNS
EXPERIMENT DESCRIPTION: NCI tumour cell line growth inhibition, 48 h; in the data active = GI50 below about 0.43 µM; inactive = the rest
Outcome codes: active, inactive

- COMPOUND: "O=C(NN1C(=O)CSC12CCCC2)C(O)c1ccccc1 (centres undefined)"
  ASSIGNED CATEGORY: "inactive"
- COMPOUND: "Cc1nnc(-c2ccc(C)c(-c3ccc(C(=O)NCc4ccc(Cl)cc4)cc3)c2)o1"
  ASSIGNED CATEGORY: "inactive"
- COMPOUND: "COC(=O)c1ccc2c(c1)c1c(C)c3ccncc3c(C)c1n2C"
  ASSIGNED CATEGORY: "active"
- COMPOUND: "O=C(NNC(=S)Nc1ccccc1)c1ccccn1"
  ASSIGNED CATEGORY: "inactive"

###

System: CAKI-1 renal
EXPERIMENT DESCRIPTION: NCI tumour cell line growth inhibition, 48 h
Below, each entry is listed with its recorded TGI.
ASSAY READOUT: TGI

- MOLECULE: "CC(Oc1ccccc1Cl)C(=O)NN1C(=O)CSC1c1ccc(Cl)cc1 (stereo unspecified)"
  ASSAY READOUT: "TGI"
  REPORTED VALUE: "56.4 µM"
- MOLECULE: "CN(C)c1ccc(C(=NN)c2ccc(N(C)C)cc2)cc1"
  ASSAY READOUT: "TGI"
  REPORTED VALUE: "> 51 µM"
- MOLECULE: "Nc1ccccc1N=Nc1c(S(=O)(=O)O)cc2cc(S(=O)(=O)O)cc(O)c2c1O"
  ASSAY READOUT: "TGI"
  REPORTED VALUE: "> 100 µM"
- MOLECULE: "CC1=NN(C(=O)c2ccc(Cl)cc2)C(=O)/C1=C/c1ccco1"
  ASSAY READOUT: "TGI"
  REPORTED VALUE: "> 100 µM"
- MOLECULE: "CSc1ccc(C2=NN(C(C)=O)C(c3ccc(F)cc3)C2)cc1 (stereo unspecified)"
  ASSAY READOUT: "TGI"
  REPORTED VALUE: "42.2 µM"
- MOLECULE: "CN1CCN(Cc2ccc(NC(=O)c3cncc(C#Cc4cnn5ccccc45)c3)cc2C(F)(F)F)CC1"
  ASSAY READOUT: "TGI"
  REPORTED VALUE: "4.56 µM"
- MOLECULE: "O=c1[nH]c(=O)n(C/C=C/CBr)nc1Br"
  ASSAY READOUT: "TGI"
  REPORTED VALUE: "24.9 µM"
- MOLECULE: "CC(C)(C)NC/C(=C\\c1ccccc1)C(=O)c1ccccc1"
  ASSAY READOUT: "TGI"
  REPORTED VALUE: "6.36 µM"
- MOLECULE: "CCc1nc2cc(/C=C/C(=O)NO)ccc2c(=O)n1CCc1ccc(F)cc1"
  ASSAY READOUT: "TGI"
  REPORTED VALUE: "6.12 µM"
- MOLECULE: "COc1ccc2c(c1)C(=O)c1c-2n(CCCN)c(=O)c2cc(OC)c(OC)cc12"
  ASSAY READOUT: "TGI"
  REPORTED VALUE: "0.467 µM"
- MOLECULE: "C=C1NC(=O)C(CC(C(=O)C(=O)Nc2c(C)cccc2C(C)(C)C)C(=O)c2ccc3ccccc3c2)C(=O)N1 (stereo unspecified)"
  ASSAY READOUT: "TGI"
  REPORTED VALUE: "> 100 µM"
- MOLECULE: "OC1CCC[C@@H]1Sc1ccccc1 (stereo partly specified)"
  ASSAY READOUT: "TGI"
  REPORTED VALUE: "> 100 µM"
- MOLECULE: "Nc1nc(N)c(N=Nc2ccc(C(=O)O)c(O)c2)c(N)n1"
  ASSAY READOUT: "TGI"
  REPORTED VALUE: "> 100 µM"
- MOLECULE: "CSc1nc(NC2OC(COC(C)=O)C(OC(C)=O)C(OC(C)=O)C2OC(C)=O)c(N=C(C)C(C)=O)c(=O)n1C (stereo unspecified)"
  ASSAY READOUT: "TGI"
  REPORTED VALUE: "> 100 µM"
- MOLECULE: "O=[N+]([O-])c1nccn1CCCNCCCn1ccnc1[N+](=O)[O-]"
  ASSAY READOUT: "TGI"
  REPORTED VALUE: "> 100 µM"
- MOLECULE: "O=S(=O)(OI(O)CC(F)(F)F)C(F)(F)F"
  ASSAY READOUT: "TGI"
  REPORTED VALUE: "> 100 µM"
- MOLECULE: "COc1cc(/C=C\\c2cc(/C=C\\c3ccc(O)c(OC)c3)n(C(=O)CNc3ccc(Cl)cc3)n2)ccc1O"
  ASSAY READOUT: "TGI"
  REPORTED VALUE: "43.6 µM"
- MOLECULE: "CC(CCCC1SCC2NC(=O)NC21)C(=O)O (stereo unspecified)"
  ASSAY READOUT: "TGI"
  REPORTED VALUE: "> 100 µM"
- MOLECULE: "NC(=S)NS(=O)(=O)c1ccc(F)cc1F"
  ASSAY READOUT: "TGI"
  REPORTED VALUE: "> 100 µM"
- MOLECULE: "CN(C)CCCNC(=O)c1cc(NC(=O)c2cc(NC(=O)[C@@H]3C[C@H]3C(=O)Nc3cc(C(=O)Nc4cc(C(=O)NCCCN(C)C)n(C)c4)n(C)c3)cn2C)cn1C"
  ASSAY READOUT: "TGI"
  REPORTED VALUE: "> 100 µM"
- MOLECULE: "c1ccc(C2=Nc3cccc4cccc(c34)N2)cc1"
  ASSAY READOUT: "TGI"
  REPORTED VALUE: "> 94.6 µM"
